biological target: T1, Peptide-8 (cysteine pairing not given here; also: biotinylated, site not given here); experiment: ELISA, Fab on captured biotin-peptide
T1 peptide: VDFCGLYHWPICYQ
pEC50: −log10 of the molar value. Where no end group is shown, it is not given here.
Threshold rule: pEC50 greater than or equal to 8 is true (1); below that, false (0).

INPUT: pEC50 >= 8 for TBD-22 (HC D109A) (Fab, V domains shown, Fab; also called HC D109A mutant) VH: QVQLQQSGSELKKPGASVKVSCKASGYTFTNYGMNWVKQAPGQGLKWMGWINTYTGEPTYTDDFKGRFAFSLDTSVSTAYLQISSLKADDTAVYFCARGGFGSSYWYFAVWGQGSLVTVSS VL: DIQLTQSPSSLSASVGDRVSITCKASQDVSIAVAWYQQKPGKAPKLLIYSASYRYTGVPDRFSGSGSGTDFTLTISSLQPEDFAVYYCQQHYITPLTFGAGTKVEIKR ?
OUTPUT: true (1)

INPUT: Check the entry TBD-1 wt (Fab, V domains shown, Fab; the heavy chain entry is VH-CH1; also called wild-type anti-TROP2 Fab (hRS7); TROP2 Fab) VH: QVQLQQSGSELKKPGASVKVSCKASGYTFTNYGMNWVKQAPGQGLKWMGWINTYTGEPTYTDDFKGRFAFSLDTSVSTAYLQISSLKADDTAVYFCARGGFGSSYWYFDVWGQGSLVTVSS VL: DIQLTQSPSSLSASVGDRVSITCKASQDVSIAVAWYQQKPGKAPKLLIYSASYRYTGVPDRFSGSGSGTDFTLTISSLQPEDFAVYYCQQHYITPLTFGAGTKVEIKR : does pEC50 equal or exceed 8?
OUTPUT: false (0)

INPUT: Can TBD-11 (HC R98A) (Fab, V domains shown, Fab; also called HC R98A mutant) VH: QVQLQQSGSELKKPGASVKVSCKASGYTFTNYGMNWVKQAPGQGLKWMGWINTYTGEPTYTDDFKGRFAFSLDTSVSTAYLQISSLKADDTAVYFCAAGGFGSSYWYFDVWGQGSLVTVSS VL: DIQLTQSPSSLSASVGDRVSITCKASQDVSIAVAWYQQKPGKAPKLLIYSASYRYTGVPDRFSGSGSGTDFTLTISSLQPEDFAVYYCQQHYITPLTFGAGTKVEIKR be said to have pEC50 at or above 8?
OUTPUT: false (0)
